Values were extracted from ChEMBL document CHEMBL1134364.

# Experiment Summary: Concentration required to inhibit 50% growth of HaCaT cells
# Assay type: functional, cell-based
# Assay Context: Homo sapiens
Could you please mark met for values of IC50 below 2000 nM and not met for values at or above it?

> print(dat)
                                    compound  group.label
 1  COc1cccc(CC(=O)C2c3cccc(O)c3C(=O)c3c(O)cccc32)c1      not met
 2  COc1ccc(COc2ccc(CC(=O)C3c4cccc(O)c4C(=O)c4c(O)cccc43)cc2)cc1      not met
 3  O=C(O)Cc1ccc(CC(=O)C2c3cccc(O)c3C(=O)c3c(O)cccc32)cc1          met
 4  CC(C(=O)C1c2cccc(O)c2C(=O)c2c(O)cccc21)c1ccc(C(=O)c2ccccc2)cc1 (stereo not given)          met
 5  COC(=O)c1ccc(CC(=O)C2c3cccc(O)c3C(=O)c3c(O)cccc32)cc1          met
 6  CCCOc1ccc(CC(=O)C2c3cccc(O)c3C(=O)c3c(O)cccc32)cc1          met
 7  O=C1c2c(O)cccc2C(C(=O)Cc2ccc(Br)cc2)c2cccc(O)c21      not met
 8  N#Cc1ccc(CC(=O)C2c3cccc(O)c3C(=O)c3c(O)cccc32)cc1      not met
 9  COc1ccc(CC(=O)C2c3cccc(O)c3C(=O)c3c(O)cccc32)cc1O          met
10  CC(C(=O)C1c2cccc(O)c2C(=O)c2c(O)cccc21)c1ccccc1 (stereo not given)          met

###

# Experiment Summary: Concentration required to inhibit 50% growth of HaCaT cells
# Assay type: functional, cell-based
# Assay Context: Homo sapiens
pIC50: −log10 of the molar value.
Known pIC50 of a selection of compounds
Readout Type: pIC50

> print(dat)
                                    compound  value.reported
 1  CSc1ccc(CC(=O)C2c3cccc(O)c3C(=O)c3c(O)cccc32)cc1            5.80
 2  COc1ccc(CC(=O)C2c3cccc(O)c3C(=O)c3c(O)cccc32)cc1OC            5.38
 3  CCOC(=O)c1ccc(CC(=O)C2c3cccc(O)c3C(=O)c3c(O)cccc32)cc1            5.89
 4  CC(C)Cc1ccc(C(C)C(=O)C2c3cccc(O)c3C(=O)c3c(O)cccc32)cc1 (stereo not given)            5.46
 5  CCOc1ccc(CC(=O)C2c3cccc(O)c3C(=O)c3c(O)cccc32)cc1            5.77
 6  COc1ccc(CC(=O)C2c3cccc(O)c3C(=O)c3c(O)cccc32)cc1            5.96
 7  O=C1c2c(O)cccc2C(C(=O)Cc2ccc(-c3ccccc3)cc2)c2cccc(O)c21            5.66
 8  COc1ccccc1CC(=O)C1c2cccc(O)c2C(=O)c2c(O)cccc21            5.80
 9  Cc1ccc(CC(=O)C2c3cccc(O)c3C(=O)c3c(O)cccc32)cc1            6.15
10              O=C1c2c(O)cccc2Cc2cccc(O)c21            6.15

###

# Experiment Summary: Concentration required to inhibit 50% growth of HaCaT cells
# Assay type: functional, cell-based
# Assay Context: Homo sapiens
pIC50: −log10 of the molar value.
Readout Type: pIC50

> print(dat)
                                  structure  readout.type  value.reported
1  CCCCOc1ccc(CC(=O)C2c3cccc(O)c3C(=O)c3c(O)cccc32)cc1         pIC50            5.92
2  O=C1c2c(O)cccc2C(C(=O)Cc2ccccc2Nc2c(Cl)cccc2Cl)c2cccc(O)c21         pIC50            5.89
3  O=C1c2c(O)cccc2C(C(=O)Cc2ccc([N+](=O)[O-])cc2)c2cccc(O)c21         pIC50            5.33
4  CC(C)Oc1ccc(CC(=O)C2c3cccc(O)c3C(=O)c3c(O)cccc32)cc1         pIC50            5.74
5  CN(C)c1ccc(CC(=O)C2c3cccc(O)c3C(=O)c3c(O)cccc32)cc1         pIC50            5.89
6  CC(C)(C)c1cc(CC(=O)C2c3cccc(O)c3C(=O)c3c(O)cccc32)cc(C(C)(C)C)c1O         pIC50            5.52
7  O=C1c2c(O)cccc2C(C(=O)Cc2ccc(C(F)(F)F)cc2)c2cccc(O)c21         pIC50            5.80
8  O=C1c2c(O)cccc2C(C(=O)Cc2c[nH]c3ccccc23)c2cccc(O)c21         pIC50            6.10
9  O=C1c2c(O)cccc2C(C(=O)Cc2ccc(Cl)cc2)c2cccc(O)c21         pIC50            5.66
